- assay remarks: yeast display, Sf9 membrane polyspecificity reagent, FACS + sequencing; frameworks hold sequencing errors
measurement type: polyreactivity (PSR sort gate)

These solved cases illustrate the format of a correct answer.
- residue string: "QVQLVESGGGLVKAGGILRLSCAASGSTFWKYAMGWYRQAPGKERELVAAINSGGSTYYADSVKGRFTISRDNAKNTVYLQMNSLKPEDTAVYYCAAVYVDRRKRSYYWGQGTQVTVSS"
  polyreactivity (PSR sort gate): "high polyreactivity"
- residue string: "QVQLVDSGGGLVQAGGSLRLSCAASGSTRRGYAMGWYRQAPGKERELVASISRRGGSTYYADSVKGRFTISRDNAKNTVYLQMKSLKTEVTAVYYCAATGRRGYGYGYWGQGTQVTVSS"
  polyreactivity (PSR sort gate): "high polyreactivity"
- residue string: "QVQLVESGGGLVQAGGSLRLSCAASGSTFTSYAMGWYRQAPGKERELVAAISKSGGSTNYADSVKGRFTISRDNAKNTVYLQMNSLKPEDTAVYYCAALGIGSYRRYSGYDYWGQGTQVTVSS"
  polyreactivity (PSR sort gate): "low polyreactivity"
- residue string: "QVQLVESGGGLVQAGGSLRLSCAASGRIFAYYAMGWYRQAPGKERELVAAISSGGTTNYADSVKGRFTISRDNAKNTVYLQMNSLKPEDTAVYYCNADGWRRSRQYYYWGQGTQVTVSS"
  polyreactivity (PSR sort gate): "low polyreactivity"
- residue string: "QVQLVESGGGLVQAGGSLRLSCAASGRIFPDNAMGWYRQAPGKERELVASITSGASTNYADSVKGRFTISRDNAKNTVFLQMNSLKPEDTAVYYCAAGYSYYDDYDYWGQGTQVTVSS"
  polyreactivity (PSR sort gate): "high polyreactivity"

Query: Any idea what its polyreactivity (PSR sort gate) is? The sequence is QVQLVESGGGLVQAGGSLRLSCAASGFTFAWYAMGWYRQAPGKERELVAAITSSGGSTYYADSVKGRFTISRDNAKNTVYLQMNSLKPEDTAVYYCAARPWIWARAGYYWGQGTQVTVSS
Result: high polyreactivity

Query: And QVQHVESGGGLVQAGGSLRLSCAASGSIFWYYAKGWYRQAPGKERELVATITSGGSTSYADSVKGRFTISRDNAKNPVYLQMNSLKPEDTAVYYCAAARLFTTYDWGQGTQVTVSS ?
Result: low polyreactivity

Query: And QVQLVESGGGLVQAGGSLRLSCAASGRIFGINAMGWYRQAPGKERELVAAIDSAGRTYYADSVKGRFTISRDNAKNTVYLQMNSLKPEDTAVYSCNKDHSLYEHNYWGQGTQVTVSS ?
Result: low polyreactivity

Query: And QVQLVESGGGLVQAGGSLRLSCAASGFIFVYYAMGWYRQAPGKERELVAAISGHGGRTYYADSVKGRFTISRDNAKNTVYLQLNSLKPEDTAVYYCAALLYWRGYGYNYWGQGTQVTVSS ?
Result: high polyreactivity

Query: And QVQLVDSGGGLVQAGGSLRLSCAASGRTFGVNAMGWYRQAPGKERELVAAISSGSSTYYADSVKGRFTISRDNAKNTVYLQMNSLKPEDTAVYYCAAKYWSYYQSRSLSYRYFYWGQGTQVTVSS ?
Result: low polyreactivity

Query: And QVQLVESGGGLVQAGGSLRLSCAASGFTFRDNAMGWYRQAPGKEWELVAAITWDGGSTYYADSVKGRFTISRDNAKNTVYLQMNSLKPEDTAVYYCAASRYYPRYFKRYYYWGQGTQVTVSS ?
Result: high polyreactivity

Cited source: the nanobody polyreactivity screen of Harvey et al. (2022)
